Target: Levetiracetam Binding Site (LBS) (Rattus norvegicus, UniProt Q02563)
Construct: from tissue; host or cells: rat cerebral cortex crude membranes (male Sprague-Dawley)
Sequence (Q02563 whole entry): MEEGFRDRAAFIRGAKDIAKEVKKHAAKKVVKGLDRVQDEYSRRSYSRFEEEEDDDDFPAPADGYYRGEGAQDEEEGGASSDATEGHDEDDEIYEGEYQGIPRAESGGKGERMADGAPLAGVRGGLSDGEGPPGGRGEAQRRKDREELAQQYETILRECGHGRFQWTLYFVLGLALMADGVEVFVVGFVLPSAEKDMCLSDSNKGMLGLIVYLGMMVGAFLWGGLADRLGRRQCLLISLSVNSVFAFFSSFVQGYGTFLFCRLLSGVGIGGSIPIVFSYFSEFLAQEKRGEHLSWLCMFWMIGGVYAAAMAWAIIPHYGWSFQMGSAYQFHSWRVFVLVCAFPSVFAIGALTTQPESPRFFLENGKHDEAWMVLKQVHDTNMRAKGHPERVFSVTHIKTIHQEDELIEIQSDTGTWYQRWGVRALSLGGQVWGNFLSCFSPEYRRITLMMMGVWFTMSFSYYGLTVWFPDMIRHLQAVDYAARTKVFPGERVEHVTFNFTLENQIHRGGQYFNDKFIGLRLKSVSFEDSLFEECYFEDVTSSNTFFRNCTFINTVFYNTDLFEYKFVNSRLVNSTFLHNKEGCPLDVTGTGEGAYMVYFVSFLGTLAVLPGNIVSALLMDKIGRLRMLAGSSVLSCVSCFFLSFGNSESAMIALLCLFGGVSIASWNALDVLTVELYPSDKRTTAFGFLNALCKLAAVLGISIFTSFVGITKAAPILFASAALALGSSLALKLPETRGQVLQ
Test: Competitive binding to levetiracetam binding site (LBS), radioligand [3H]-2-[4-(3-azidophenyl)-2-oxo-1-pyrrolidinyl]butanamide, cerebral cortex membranes
Conditions: reference
pKi: −log10 of the molar value.
Recorded Metric: pKi

[[record]]
compound = "CC[C@@H](C(N)=O)N1CCCC1=O [levetiracetam, reference compound]"
recorded_metric = "pKi"
recorded_value = 6.10


###

Target: Levetiracetam Binding Site (LBS) (Rattus norvegicus, UniProt Q02563)
Construct: from tissue; host or cells: rat cerebral cortex crude membranes (male Sprague-Dawley)
Assay: Competitive binding to levetiracetam binding site (LBS), radioligand [3H]-2-[4-(3-azidophenyl)-2-oxo-1-pyrrolidinyl]butanamide, cerebral cortex membranes
Settings: 6-ring compounds, rat cerebral cortex membranes
# Ki per record follows
Recorded Metric: Ki

[[record]]
molecule = "CCC(C(N)=O)N1CC(c2ccccc2)CCC1=O (stereo not drawn)"
subject_of_test = "Levetiracetam Binding Site (LBS) (Rattus norvegicus, UniProt Q02563)"
recorded_value = "31.6 to 316 nM"

[[record]]
molecule = "CC[C@@H](C(N)=O)N1CC(CN=[N+]=[N-])CCC1=O (stereo partly drawn) [Compound 7]"
subject_of_test = "Levetiracetam Binding Site (LBS) (Rattus norvegicus, UniProt Q02563)"
recorded_value = "31.6 to 316 nM"

[[record]]
molecule = "CC[C@@H](C(N)=O)N1CC(CN=[N+]=[N-])CCC1=O (stereo partly drawn) [Compound 8]"
subject_of_test = "Levetiracetam Binding Site (LBS) (Rattus norvegicus, UniProt Q02563)"
recorded_value = "316 to 3160 nM"

[[record]]
molecule = "CC[C@@H](C(N)=O)N1CC(CI)CCC1=O (stereo partly drawn) [Compound 5]"
subject_of_test = "Levetiracetam Binding Site (LBS) (Rattus norvegicus, UniProt Q02563)"
recorded_value = "316 to 3160 nM"

[[record]]
molecule = "CC[C@@H](C(N)=O)N1CC(CI)CCC1=O (stereo partly drawn) [Compound 6]"
subject_of_test = "Levetiracetam Binding Site (LBS) (Rattus norvegicus, UniProt Q02563)"
recorded_value = "31.6 to 316 nM"

[[record]]
molecule = "CC[C@@H](C(N)=O)N1CCC(CI)CC1=O (stereo partly drawn)"
subject_of_test = "Levetiracetam Binding Site (LBS) (Rattus norvegicus, UniProt Q02563)"
recorded_value = "31.6 to 316 nM"


The reported measurements were obtained from patent US7473697B2.
